The entries below are paired with their reported relative growth recovery.
Tested on: HEK293FT dCK*-IKZF1
Assay: relative growth recovery (pomalidomide 10 uM = 100%, DMSO = 0%); higher = more growth rescue (IKZF1 fusion degradation)
Conditions: compound concentration: 5 uM; AraC concentration: 0.3 uM; overnight pretreatment + 4 days AraC

COMPOUND	TESTED_SYSTEM	relative growth recovery [%]
COc1ccc2cc1Oc1ccc(cc1)C[C@H]1c3cc(c(OC)cc3CCN1C)Oc1c(OC)c(OC)cc3c1[C@H](C2)N(C)CC3 [Tetrandrine (Fanchinine)]	HEK293FT dCK*-IKZF1	-3.42
CCC(C)c1ccc(NC(=O)Cn2cnc3c2c(=O)n(C)c(=O)n3C)cc1 (centres undefined)	HEK293FT dCK*-IKZF1	1.29
CCSc1ccc2c(c1)N(CCCN1CCN(C)CC1)c1ccccc1S2 [thiethylperazine]	HEK293FT dCK*-IKZF1	1.55
O=C1OC2(c3ccc(O)cc3Oc3cc(O)ccc32)c2ccccc21	HEK293FT dCK*-IKZF1	-3.9
CCCCCCCCCCCCCCCC[N+](C)(C)C	HEK293FT dCK*-IKZF1	-11.7
O=[N+]([O-])c1ccc(O)c2ncccc12	HEK293FT dCK*-IKZF1	-2.33
COC(=O)Nc1nc2cc(C(=O)c3cccs3)ccc2[nH]1 [nocodazole]	HEK293FT dCK*-IKZF1	-11.6
CC(C)(C)c1ccc(-c2nc3cccc(N4CCN(Cc5ccc6nccnc6c5)CC4)c3[nH]2)cc1	HEK293FT dCK*-IKZF1	9.79
CCCS(=O)c1ccc2nc(NC(=O)OC)[nH]c2c1 (centres undefined) [Albendazole Oxide (Ricobendazole)]	HEK293FT dCK*-IKZF1	-2.83

###

Tested on: HEK293FT dCK*-IKZF1
Assay: relative growth recovery (pomalidomide 10 uM = 100%, DMSO = 0%); higher = more growth rescue (IKZF1 fusion degradation)
Conditions: compound concentration: 5 uM; AraC concentration: 0.3 uM; overnight pretreatment + 4 days AraC
MEASURED_ENDPOINT: relative growth recovery (%)

COMPOUND	MEASURED_ENDPOINT	VALUE_MEASURED
CCCCOc1ccc(-c2cncc(C(=O)NCc3cccnc3N3CCOCC3)c2)cc1Cl	relative growth recovery	4.37
COC(=O)Nc1nc2cc(C(=O)c3ccccc3)ccc2[nH]1	relative growth recovery	-10.7
COc1ccccc1NC(=O)OCC1CCN(C(=O)OC(C)(C)C)CC1	relative growth recovery	0.27
CC1=C(C(=O)OC(C)C)C(c2cccc([N+](=O)[O-])c2)C(C(=O)OC2CN(C(c3ccccc3)c3ccccc3)C2)=C(N)N1 (centres undefined)	relative growth recovery	0.07
C[C@H]1[C@H](OC(=O)CCC(=O)O)O[C@@H]2O[C@@]3(C)CC[C@H]4[C@H](C)CC[C@@H]1[C@@]24OO3	relative growth recovery	-9.71
O=C1OCCN1/N=C/c1ccc([N+](=O)[O-])o1	relative growth recovery	-3.37
CN(C)CCOC1=Cc2ccccc2Sc2ccc(Cl)cc21 [zotepine]	relative growth recovery	-1.67
Clc1ccc(C(Cn2ccnc2)OCc2c(Cl)cccc2Cl)c(Cl)c1 (centres undefined) [Isoconazole nitrate (Travogen)]	relative growth recovery	-3.42
COc1c(C)c2c(c(O)c1C/C=C(\C)CCC(=O)O)C(=O)OC2	relative growth recovery	-11.7

###

Molecular target: IKZF1 (dCK*-IKZF1 fusion in HEK293FT)
Assay: inhibition of IKZF1 HTRF signal (DMSO = 0%, pomalidomide 10 uM = 100%); higher = lower IKZF1 protein level
Settings: compound concentration: 5 uM, overnight (~20 h)
Counter-ions that a name gives are not always drawn.
MEASURED_ENDPOINT: inhibition of IKZF1 HTRF signal (%)

COMPOUND	MEASURED_ENDPOINT	VALUE_MEASURED
CO[C@H]1/C=C/O[C@@]2(C)Oc3c(C)c(O)c4c(O)c(cc(O)c4c3C2=O)NC(=O)/C(C)=C\C=C\[C@H](C)[C@H](O)[C@@H](C)[C@@H](O)[C@@H](C)[C@H](OC(C)=O)[C@@H]1C [Rifamycin SV Sodium]	inhibition of IKZF1 HTRF signal	-36.7
CC(C)c1ccc(NC(=O)Cn2cnc3c2c(=O)n(C)c(=O)n3C)cc1	inhibition of IKZF1 HTRF signal	12.2
CN(C)C(=O)C(CCN1CCC(O)(c2ccc(Cl)cc2)CC1)(c1ccccc1)c1ccccc1 [Loperamide HCl]	inhibition of IKZF1 HTRF signal	3.48
CCCCCCCCN=c1ccn(CCCCCCCCCCn2ccc(=NCCCCCCCC)cc2)cc1 [Octenidine Dihydrochloride]	inhibition of IKZF1 HTRF signal	64.7
O=C(c1cc(S(=O)(=O)Nc2ccccc2F)c(F)cc1Cl)N1CCN2CCC[C@@H]2C1	inhibition of IKZF1 HTRF signal	-26
Nc1ncn([C@@H]2O[C@H](CO)[C@@H](O)[C@H]2O)c(=O)n1	inhibition of IKZF1 HTRF signal	-45.6
CCOC(=O)CC(=O)N1CCSC1COc1ccccc1OC (configuration not stated) [Moguisteine]	inhibition of IKZF1 HTRF signal	-1.23

###

Target: IKZF1 (dCK*-IKZF1 fusion in HEK293FT) (UniProt Q13422)
Sequence (Q13422 whole entry, looked up, the tested form may be a part): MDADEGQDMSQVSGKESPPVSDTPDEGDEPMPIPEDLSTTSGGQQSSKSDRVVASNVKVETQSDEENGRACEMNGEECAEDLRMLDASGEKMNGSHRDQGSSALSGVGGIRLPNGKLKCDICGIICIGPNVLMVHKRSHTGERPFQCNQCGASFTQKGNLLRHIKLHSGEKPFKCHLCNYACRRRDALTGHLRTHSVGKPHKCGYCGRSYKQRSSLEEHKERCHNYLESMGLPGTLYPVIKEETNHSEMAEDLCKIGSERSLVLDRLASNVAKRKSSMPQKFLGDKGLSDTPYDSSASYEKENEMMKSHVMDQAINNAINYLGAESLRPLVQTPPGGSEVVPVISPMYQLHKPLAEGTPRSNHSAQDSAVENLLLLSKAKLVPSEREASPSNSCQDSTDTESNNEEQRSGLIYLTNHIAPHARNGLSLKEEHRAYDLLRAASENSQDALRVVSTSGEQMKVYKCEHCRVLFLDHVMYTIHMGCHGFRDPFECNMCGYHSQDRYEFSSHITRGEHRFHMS
Test: inhibition of IKZF1 HTRF signal (DMSO = 0%, pomalidomide 10 uM = 100%); higher = lower IKZF1 protein level
Conditions: compound concentration: 5 uM, overnight (~20 h)
MEASURED_ENDPOINT: inhibition of IKZF1 HTRF signal (%)

COMPOUND	TESTED_SYSTEM	VALUE_MEASURED
COCC(=O)O[C@]1(CCN(C)CCCc2nc3ccccc3[nH]2)CCc2cc(F)ccc2[C@@H]1C(C)C [mibefradil]	IKZF1 (dCK*-IKZF1 fusion in HEK293FT) (UniProt Q13422)	-3.89
Cc1cccc(C)c1NC(=O)CN1CCN(CCCC(c2ccc(F)cc2)c2ccc(F)cc2)CC1 [lidoflazine]	IKZF1 (dCK*-IKZF1 fusion in HEK293FT) (UniProt Q13422)	-30.1
Clc1ccc2c(NCCNc3ccnc4cc(Cl)ccc34)ccnc2c1	IKZF1 (dCK*-IKZF1 fusion in HEK293FT) (UniProt Q13422)	-19.4
Oc1c(I)cc(I)c(O)c1I [riodoxol]	IKZF1 (dCK*-IKZF1 fusion in HEK293FT) (UniProt Q13422)	-5.43
CC(O)(C(=O)Nc1ccc(S(=O)(=O)c2ccccc2)cc1)C(F)(F)F (stereo not given)	IKZF1 (dCK*-IKZF1 fusion in HEK293FT) (UniProt Q13422)	-44.3

###

Molecular target: IKZF1 (dCK*-IKZF1 fusion in HEK293FT) (UniProt Q13422)
Test: inhibition of IKZF1 HTRF signal (DMSO = 0%, pomalidomide 10 uM = 100%); higher = lower IKZF1 protein level
Settings: compound concentration: 5 uM, overnight (~20 h)
# inhibition of IKZF1 HTRF signal >= -30% gives satisfied, anything below gives not satisfied

MOLECULE	TESTED_SYSTEM	ASSIGNED_CATEGORY
Clc1ccc(C(Cn2ccnc2)OCc2c(Cl)cccc2Cl)c(Cl)c1 (centres undefined) [Isoconazole nitrate (Travogen)]	IKZF1 (dCK*-IKZF1 fusion in HEK293FT) (UniProt Q13422)	satisfied
Cc1cc(C)nc(NS(=O)(=O)c2ccc(N)cc2)n1	IKZF1 (dCK*-IKZF1 fusion in HEK293FT) (UniProt Q13422)	satisfied
NC(=O)C(c1ccccc1)(c1ccc(F)cc1)c1ccc(F)cc1 [Senicapoc]	IKZF1 (dCK*-IKZF1 fusion in HEK293FT) (UniProt Q13422)	satisfied
CC(=O)N(OCc1ccccc1)[C@@H]1c2cc(C#N)ccc2OC(C)(C)[C@H]1O	IKZF1 (dCK*-IKZF1 fusion in HEK293FT) (UniProt Q13422)	satisfied
C[C@H](NCc1ccc(OCc2ccccc2F)cc1)C(N)=O [priralfinamide]	IKZF1 (dCK*-IKZF1 fusion in HEK293FT) (UniProt Q13422)	satisfied
O=c1c(O)c(-c2ccc(O)c(O)c2)oc2cc(O)ccc12 [Fisetin (Fustel)]	IKZF1 (dCK*-IKZF1 fusion in HEK293FT) (UniProt Q13422)	satisfied
O=C(Nc1ccc(S(=O)(=O)Nc2nccs2)cc1)C(c1ccccc1)c1ccccc1	IKZF1 (dCK*-IKZF1 fusion in HEK293FT) (UniProt Q13422)	not satisfied
NS(=O)(=O)Cc1noc2ccccc12 [zonisamide]	IKZF1 (dCK*-IKZF1 fusion in HEK293FT) (UniProt Q13422)	satisfied
COc1ccc(/C=C/C(=O)/C=C(O)/C=C/c2ccc(OC)c(OC)c2)cc1OC [Dimethylcurcumin, ASC-J9]	IKZF1 (dCK*-IKZF1 fusion in HEK293FT) (UniProt Q13422)	not satisfied

###

System: HEK293FT dCK*-only
Test: relative growth in counter assay (no AraC = 100%, AraC + DMSO = 0%); higher = more growth rescue independent of IKZF1
Details: compound concentration: 5 uM; AraC concentration: 0.3 uM; overnight pretreatment + 4 days AraC
Where a name gives a salt, the structure may show the parent alone.
The entries below are paired with their reported relative growth in counter assay.

COMPOUND	TESTED_SYSTEM	relative growth in counter assay
Oc1cc(CNC(=S)/C=C/c2cc(O)c(O)c(Br)c2)cc(O)c1O	HEK293FT dCK*-only	-34.9%
CC[C@H](CO)Nc1nc(Nc2cccc(-c3ccccn3)c2)c2ncn(C(C)C)c2n1	HEK293FT dCK*-only	-0.26%
CC(=O)[C@@]1(O)C=C(O[C@H]2C[C@H](N)[C@H](O)[C@H](C)O2)c2c(c(O)c3c(O)c4ccccc4c(O)c3c2O)C1 [Idarubicin HCl]	HEK293FT dCK*-only	-34.3%
NC(=O)Nc1sc(-c2ccc(F)cc2)cc1C(N)=O	HEK293FT dCK*-only	-26.8%
CCCCCCc1ccc(O)cc1O	HEK293FT dCK*-only	4.87%

These data points were gathered from the supplement of paper PMC12340641.
